Hello, the source for this data is PubChem BioAssay (EPA / NIEHS), in case you need it.

assay: BSK_hDFCGF_SRB: Viability Assessment in the BioMAP Diversity Plus: hDFCGF Assay (AID 2283061); details: primary human foreskin fibroblasts;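 also: cells exposed to compound for 24 h before the read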
Active and inactive are the calls of the source. The calls were made as follows: active = hit-call score of the fitted dose curve at least 0.9, where 1 is the maximum; inactive = score below 0.9.
Possible outcomes: active, inactive

{"compound": "CCCCOC(=O)c1ccccc1C(=O)OCCCC", "class label": "inactive"}
{"compound": "N#Cc1nn(-c2c(Cl)cc(C(F)(F)F)cc2Cl)c(N)c1S(=O)C(F)(F)F (stereo unspecified)", "class label": "inactive"}
{"compound": "CCOC(=O)CC(SP(=S)(OC)OC)C(=O)OCC (stereo unspecified)", "class label": "inactive"}
{"compound": "O=C(Nc1ccccc1)Nc1ccnc(Cl)c1", "class label": "inactive"}
{"compound": "C=CC1(C)OC(=O)N(c2cc(Cl)cc(Cl)c2)C1=O (stereo unspecified)", "class label": "inactive"}
{"compound": "O=C(O)COc1nc(Cl)c(Cl)cc1Cl", "class label": "inactive"}
{"compound": "CON(C)C(=O)Nc1ccc(Cl)c(Cl)c1", "class label": "inactive"}
{"compound": "CCOP(=S)(OCC)SCn1c(=O)oc2cc(Cl)ccc21", "class label": "inactive"}
{"compound": "COC(=O)N(OC)c1ccccc1COc1ccn(-c2ccc(Cl)cc2)n1", "class label": "active"}
{"compound": "Fc1ccc(Oc2ccnc3cc(Cl)cc(Cl)c23)cc1", "class label": "active"}
{"compound": "COc1nc(C)nc(NC(=O)NS(=O)(=O)c2ccccc2CCC(F)(F)F)n1", "class label": "inactive"}
{"compound": "N#Cc1cc(Br)c(O)c(Br)c1", "class label": "inactive"}
{"compound": "CS/C(C)=N/OC(=O)N(C)SN(C)C(=O)O/N=C(\\C)SC", "class label": "active"}
{"compound": "COc1nc(NC(C)C)nc(NC(C)C)n1", "class label": "inactive"}
{"compound": "OC(c1ccc(Cl)cc1)(c1cncnc1)c1ccccc1Cl (stereo unspecified)", "class label": "inactive"}
{"compound": "CCOC(=O)C(Cl)Cc1cc(-n2nc(C)n(C(F)F)c2=O)c(F)cc1Cl (stereo unspecified)", "class label": "inactive"}
{"compound": "CO/C=C(/C(=O)OC)c1ccccc1Oc1cc(Oc2ccccc2C#N)ncn1", "class label": "inactive"}
{"compound": "Oc1ccccc1-c1ccccc1", "class label": "inactive"}
{"compound": "CN(C)C(=S)SSC(=S)N(C)C", "class label": "active"}
{"compound": "CCNc1nc(Cl)nc(NCC)n1", "class label": "inactive"}
{"compound": "CC1=C(C(=O)Nc2ccccc2)SCCO1", "class label": "inactive"}

---

read-out: matrix metalloproteinase-10 (MMP10), MMP10 (gene 4319); assay: LTEA_HepaRG_MMP10: Life Technologies and Expression Analysis (LTEA) Assay for matrix metalloproteinase-10 (MMP10) using HepaRG (AID 2283517); conditions: mRNA level, 48 h; actives raise or lower the signal
The source made the active and inactive calls. The calls were made as follows: active = hit-call score of the fitted dose curve at least 0.9, where 1 is the maximum; inactive = score below 0.9.
Possible outcomes: Yes = active, No = inactive

{"compound": "CC1COC(Cn2cncn2)(c2ccc(Oc3ccc(Cl)cc3)cc2Cl)O1 (stereo unspecified)", "class label": "Yes"}
{"compound": "CS/C(C)=N/OC(=O)N(C)SN(C)C(=O)O/N=C(\\C)SC", "class label": "No"}
{"compound": "C=CCC1=C(C)C(OC(=O)C2C(C=C(C)C)C2(C)C)CC1=O (stereo unspecified)", "class label": "No"}
{"compound": "COC(=O)C(C)Oc1ccc(Oc2ccc(Cl)cc2Cl)cc1 (stereo unspecified)", "class label": "No"}
{"compound": "CCCCNC(=O)OCC#CI", "class label": "No"}
{"compound": "C=CC1(C)OC(=O)N(c2cc(Cl)cc(Cl)c2)C1=O (stereo unspecified)", "class label": "No"}
{"compound": "CCOC(=O)CC(SP(=S)(OC)OC)C(=O)OCC (stereo unspecified)", "class label": "No"}
{"compound": "O=C(Nc1ccccc1)Nc1ccnc(Cl)c1", "class label": "No"}
{"compound": "CNC(=S)S", "class label": "No"}
{"compound": "CON(C)C(=O)Nc1ccc(Cl)c(Cl)c1", "class label": "No"}
{"compound": "CCOP(=S)(OCC)SCn1c(=O)oc2cc(Cl)ccc21", "class label": "No"}
{"compound": "C#CCOS(=O)OC1CCCCC1Oc1ccc(C(C)(C)C)cc1 (stereo unspecified)", "class label": "Yes"}
{"compound": "COP(=S)(OC)Oc1nc(Cl)c(Cl)cc1Cl", "class label": "No"}
{"compound": "CCCCOC(=O)c1ccccc1C(=O)OCCCC", "class label": "No"}
{"compound": "CC(C)(C)c1ccc(CSc2cnn(C(C)(C)C)c(=O)c2Cl)cc1", "class label": "Yes"}
{"compound": "Oc1ccccc1-c1ccccc1", "class label": "No"}
{"compound": "CC(C)C1(C)N=C(c2nc3ccccc3cc2C(=O)O)NC1=O (stereo unspecified)", "class label": "No"}
{"compound": "CCCCNC(=O)n1c(NC(=O)OC)nc2ccccc21", "class label": "No"}
{"compound": "COC(=O)C=C(C)OP(=O)(OC)OC", "class label": "No"}
{"compound": "CC(C)Oc1cc(-n2nc(C(C)(C)C)oc2=O)c(Cl)cc1Cl", "class label": "No"}
{"compound": "CCOC(=O)C(Cl)Cc1cc(-n2nc(C)n(C(F)F)c2=O)c(F)cc1Cl (stereo unspecified)", "class label": "No"}
{"compound": "Cc1c(F)c(F)c(COC(=O)C2C(/C=C(\\Cl)C(F)(F)F)C2(C)C)c(F)c1F (stereo unspecified)", "class label": "No"}
{"compound": "COC(=O)c1ccccc1C(=O)OC", "class label": "No"}
{"compound": "CCNc1nc(Cl)nc(NC(C)C)n1", "class label": "No"}
{"compound": "CC(Oc1ccc(Cl)cc1Cl)C(=O)O (stereo unspecified)", "class label": "No"}
{"compound": "Cc1cc(Cl)ccc1OCC(=O)O", "class label": "No"}

---

read-out: Vascular cell adhesion molecule 1 (VCAM1), VCAM1 (gene 7412); test: BSK_hDFCGF_VCAM1: BioMAP Diversity Plus: hDFCGF Assay for Vascular cell adhesion molecule 1 (VCAM1) Biomarker Activity (AID 2283065); settings: primary human foreskin fibroblasts; actives raise or lower the signal
The source made the active and inactive calls. How the source made its calls: active means hit-call score of the fitted dose curve at least 0.9, where 1 is the maximum; inactive means score below 0.9.
Possible outcomes: active, inactive

{"molecule": "CNC(=O)ON=CC(C)(C)SC", "class label": "inactive"}
{"molecule": "COc1ccc(C(c2ccc(OC)cc2)C(Cl)(Cl)Cl)cc1", "class label": "active"}
{"molecule": "O=C(O)COc1nc(Cl)c(Cl)cc1Cl", "class label": "inactive"}
{"molecule": "COc1nc(NC(C)C)nc(NC(C)C)n1", "class label": "inactive"}
{"molecule": "C=CC1(C)OC(=O)N(c2cc(Cl)cc(Cl)c2)C1=O (configuration not stated)", "class label": "inactive"}
{"molecule": "N#Cc1cc(Br)c(O)c(Br)c1", "class label": "inactive"}
{"molecule": "CNC(=S)S", "class label": "inactive"}

---

Experiment: APR_HepG2_P-H2AX_24hr: Apredica 24-hour HepG2 Assay for H2AX Phosphorylation (AID 2282920)
Settings: high-content imaging, actives raise or lower the signal
Procedure: APR_HepG2_24hr is a cell-based, multiplexed-readout assay that uses HepG2, a human liver cell line, with measurements taken at 24 hours after chemical dosing in a 384-well plate.APR_HepG2_P-H2AX_24hr is one of 10 assay component(s) measured or calculated from the APR_HepG2_24hr assay. […] This assay endpoint, APR_HepG2_P-H2AX_24hr, was analyzed with bidirectional fitting relative to DMSO as the negative control and baseline of activity. […]
The source made the active and inactive calls. The calls were made as follows: active = hit-call score of the fitted dose curve at least 0.9, where 1 is the maximum; inactive = score below 0.9.

{"molecule": "CN(C)C(=S)SSC(=S)N(C)C", "AC50": "1.78 µM (active)"}
{"molecule": "COc1nc(C)nc(NC(=O)NS(=O)(=O)c2ccccc2Cl)n1", "AC50": "inactive"}
{"molecule": "Cc1c(F)c(F)c(COC(=O)C2C(/C=C(\\Cl)C(F)(F)F)C2(C)C)c(F)c1F (configuration not stated)", "AC50": "inactive"}
{"molecule": "C=CC1(C)OC(=O)N(c2cc(Cl)cc(Cl)c2)C1=O (configuration not stated)", "AC50": "inactive"}
{"molecule": "OC(c1ccc(Cl)cc1)(c1cncnc1)c1ccccc1Cl (configuration not stated)", "AC50": "inactive"}
{"molecule": "N#Cc1nn(-c2c(Cl)cc(C(F)(F)F)cc2Cl)c(N)c1S(=O)C(F)(F)F (configuration not stated)", "AC50": "107 µM (active)"}
{"molecule": "COP(N)(=O)SC (configuration not stated)", "AC50": "inactive"}
{"molecule": "COc1nc(NC(C)C)nc(NC(C)C)n1", "AC50": "inactive"}
{"molecule": "COC(=O)C(C)Oc1ccc(Oc2ccc(Cl)cc2Cl)cc1 (configuration not stated)", "AC50": "inactive"}
{"molecule": "CS/C(C)=N/OC(=O)N(C)SN(C)C(=O)O/N=C(\\C)SC", "AC50": "inactive"}
{"molecule": "O=C(Nc1ccccc1)Nc1ccnc(Cl)c1", "AC50": "inactive"}
{"molecule": "CCc1nn(C)c(C(=O)NCc2ccc(C(C)(C)C)cc2)c1Cl", "AC50": "100 µM (active)"}
